As shown below, each of these compounds has a reported logP value.
- test: Octanol-water partition coefficient, log P of the compound
- Type: physicochemical
Please reply with the value in numeric form only.

O=P(N1CC1)(N1CC1)C12CC3CC(CC(C3)C1)C2 :: 0.88

Please examine the following record next.
input: Identify logP associated with the compound O=P(NC12CC3CC(CC(C3)C1)C2)(N1CC1)N1CC1
output: 1.45
